- measurement-notes: Human Plasma Protein Binding (Test B)
- Format: in vitro ADME
- recorded-conditions: fraction unbound (fu)
reported-metric: Test B Human Plasma Protein Binding (% free)
Write the number in % free without appending the unit.

Can you share its Test B Human Plasma Protein Binding (% free)? I mean this molecule: COc1cc(F)c(-c2cnc(NCC(=O)O)nc2)cc1C(=O)N[C@@H]1[C@H]2CC[C@H](C2)[C@@H]1C(=O)Nc1cccc(S(=O)(=O)C(F)(F)F)c1 [Example 240]
2.3

Input COc1cc(F)c(-c2ccc(CCC(=O)O)nc2)cc1C(=O)N[C@@H]1[C@H]2CC[C@H](C2)[C@@H]1C(=O)Nc1cccc(S(=O)(=O)C(F)(F)F)c1 [Example 258]
1.7

Input COc1cc(F)c(O[C@H]2CC[C@@H](C(=O)O)CC2)cc1C(=O)NC1C(C(=O)NCCCC(F)(F)F)[C@@H]2CC[C@H]1C2 (some centres unmarked) [Example 175]
14

Input COc1cc(F)c(-c2ccc(C(=O)O)cc2)cc1C(=O)N[C@@H]1[C@H]2CC[C@H](C2)[C@@H]1C(=O)Nc1cccc(S(F)(F)(F)(F)F)c1 [Example 209]
0.10

Input COc1cc(F)c(O[C@H]2C[C@@](C)(C(=O)O)C2)cc1C(=O)N[C@@H]1[C@H]2CC[C@H](C2)[C@@H]1C(=O)NCC1(C)CCC1 [Example 149]
11

Input COc1cc(F)c(O[C@H]2CC[C@@H](C(=O)O)CC2)cc1C(=O)N[C@@H]1[C@H]2CC[C@H](C2)[C@@H]1C(=O)Nc1cc(C(F)(F)F)ccn1 [Example 14]
1.8

Input COc1cc(F)c(O[C@H]2CC[C@@](C)(C(=O)O)CC2)cc1C(=O)N[C@H]1[C@@H]2CC[C@@H](C2)[C@H]1C(=O)NCC1(C)CCC1 [Example 3]
3.7

Input COc1cc(F)c(O[C@H]2CC[C@@](C)(C(=O)O)CC2)cc1C(=O)N[C@@H]1CCC[C@@H]1C(=O)NCC(C)(C)C#N [Example 69]
33

Input COc1cc(C#N)c(O[C@H]2CC[C@@](C)(C(=O)O)CC2)cc1C(=O)N[C@@H]1[C@H]2CC[C@H](C2)[C@@H]1C(=O)N[C@H]1C[C@@H](C)C1 [Example 73]
12

Input COc1cc(F)c(-c2cccc(C(=O)O)c2)cc1C(=O)N[C@H]1[C@@H](C(=O)Nc2cccc(S(=O)(=O)C(F)(F)F)c2)[C@@H]2C=C[C@H]1C2 (racemic) [Example 225]
0.10

Input COc1cc(F)c(O[C@H]2CC[C@@H](C(=O)O)CC2)cc1C(=O)N[C@H]1[C@@H](C(=O)Nc2ccc(F)c(S(F)(F)(F)(F)F)c2)[C@@H]2C=C[C@H]1C2 [Example 488]
0.13

* * *

- measurement-notes: Human Liver Microsomal Stability (Test C)
- Format: in vitro ADME
- recorded-conditions: human, liver microsomes
Simple rule here: microsomal CLint less than 20 µL/min/mg is fulfilled, otherwise not fulfilled.

Item CCOc1cc(F)c(O[C@H]2CC[C@@](C)(C(=O)O)CC2)cc1C(=O)N[C@@H]1[C@H]2CC[C@H](C2)[C@@H]1C(=O)NCC1(C)CCC1 : microsomal CLint beneath 20 µL/min/mg, strictly?
not fulfilled

Input COc1cc(F)c(O[C@H]2CC[C@@](C)(C(=O)O)CC2)cc1C(=O)N[C@@H]1CCC[C@@H]1C(=O)NCC(C)(C)C#N
fulfilled

Input COc1cc(C#N)c(O[C@H]2CC[C@@](C)(C(=O)O)CC2)cc1C(=O)N[C@@H]1[C@H]2CC[C@H](C2)[C@@H]1C(=O)NCC1(C)CCC1
fulfilled

Input COc1cc(F)c(O[C@H]2CC[C@@H](C(=O)O)CC2)cc1C(=O)N[C@@H]1CC(F)(F)C[C@@H]1C(=O)Nc1ccc(F)c(C(F)(F)F)c1 (racemic)
fulfilled

Input COc1cc(F)c(-c2ccc3c(c2)OC[C@@H]3CC(=O)O)cc1C(=O)N[C@@H]1[C@H]2CC[C@H](C2)[C@@H]1C(=O)Nc1cccc(S(=O)(=O)C(F)(F)F)c1
not fulfilled

Input COc1cc(F)c(-c2ccc(CC(=O)O)cc2)cc1C(=O)N[C@@H]1CCC[C@@H]1C(=O)Nc1cccc(S(=O)(=O)C(F)(F)F)c1
fulfilled

Input COc1cc(F)c(-c2ccc(OCC(=O)O)nc2)cc1C(=O)N[C@@H]1[C@H]2CC[C@H](C2)[C@@H]1C(=O)Nc1cccc(S(=O)(=O)C(F)(F)F)c1
fulfilled

Input COc1c(F)cc(O[C@H]2CC[C@@](C)(C(=O)O)CC2)cc1C(=O)N[C@@H]1[C@H]2CC[C@H](C2)[C@@H]1C(=O)NCC1(C)CCC1
not fulfilled

Input COc1cc(F)c(O[C@H]2CC[C@@H](C(=O)O)CC2)cc1C(=O)N[C@@H]1[C@H]2CC[C@H](C2)[C@@H]1C(=O)NCCC1CC1
fulfilled

Input COc1cc(C#N)c(O[C@H]2CC[C@@](C)(C(=O)O)CC2)cc1C(=O)N[C@@H]1[C@H]2CC[C@H](C2)[C@@H]1C(=O)NCC(C)(C)C(F)(F)F
fulfilled
